Measured values drawn from ChEMBL document CHEMBL1629541 for this set.

Give remaining at 1 h for every item shown.
- MEASUREMENT_PROTOCOL: in vitro
- EXPERIMENTAL_CONTEXT: CD1, mouse, liver microsomes
- Description: Metabolic stability in CD1 mouse liver microsomes assessed as compound remaining after 1 hr
Answers are plain numbers, in %.

INSERT INTO assay_data (substance_smiles, measure, endpoint_result) VALUES
  ('O=[N+]([O-])c1cn2c(n1)OC[C@@H](OCc1ncc(-c3ccc(OC(F)(F)F)cc3)cn1)C2', 'remaining at 1 h', 87),
  ('O=[N+]([O-])c1cn2c(n1)OC[C@@H](OCc1ccnc(-c3ccc(OC(F)(F)F)cc3)c1)C2', 'remaining at 1 h', 31),
  ('O=[N+]([O-])c1cn2c(n1)OC[C@@H](OCc1ccc(-c3ccc(OC(F)F)nc3)cc1)C2', 'remaining at 1 h', 75),
  ('O=[N+]([O-])c1cn2c(n1)OC[C@@H](OCc1cnc(-c3ccc(OC(F)(F)F)cc3)nc1)C2', 'remaining at 1 h', 87),
  ('O=[N+]([O-])c1cn2c(n1)OC[C@@H](OCc1cncc(-c3ccc(F)cc3)c1)C2', 'remaining at 1 h', 39),
  ('O=[N+]([O-])c1cn2c(n1)OC[C@@H](OCc1ccc(-c3ccc(OC(F)(F)F)c(F)c3)cn1)C2', 'remaining at 1 h', 86);

Hi there! I need remaining at 1 h for each item below, if you can.
1. O=[N+]([O-])c1cn2c(n1)OC[C@@H](OCc1ccc(-c3ccc(OC(F)(F)F)cc3)nc1)C2
2. O=[N+]([O-])c1cn2c(n1)OC[C@@H](OCc1ccc(-c3ccc(C(F)(F)F)cn3)cc1)C2

OUTPUT:
87
90

====

Give Cmax for every item shown.
- MEASUREMENT_PROTOCOL: Cmax in CD1 mouse plasma at 40 mg/kg, po administered as single dose
- Assay type: ADME, organism-based
- Parameters: dose 40 mg/kg, route oral
One number for each entry, in ng/mL.

Past entries and their recorded results:
INSERT INTO measurements (substance_smiles, endpoint_result) VALUES
  ('O=[N+]([O-])c1cn2c(n1)OC[C@@H](OCc1ccc(-c3ccc(F)cc3)nc1)C2', 5300),
  ('O=[N+]([O-])c1cn2c(n1)OC[C@@H](OCc1ccc(-c3ccc(OC(F)(F)F)c(F)c3)nc1)C2', 7000),
  ('O=[N+]([O-])c1cn2c(n1)OC[C@@H](OCc1ccc(-c3ccc(OC(F)(F)F)cc3)cc1)C2', 7400),
  ('O=[N+]([O-])c1cn2c(n1)OC[C@@H](OCc1ccc(-c3ccc(OC(F)(F)F)cc3)nn1)C2', 3600),
  ('O=[N+]([O-])c1cn2c(n1)OC[C@@H](OCc1cnc(-c3ccc(OC(F)(F)F)cc3)cn1)C2', 9600);

Hi there! I need Cmax for each item below, if you can.
1. O=[N+]([O-])c1cn2c(n1)OC[C@@H](OCc1ccc(-c3ccc(OC(F)(F)F)cc3)nc1)C2
2. O=[N+]([O-])c1cn2c(n1)OC[C@@H](OCc1ccc(-c3ccc(OC(F)(F)F)c(Cl)c3)nc1)C2
3. O=[N+]([O-])c1cn2c(n1)OC[C@@H](OCc1ccc(-c3ccc(C(F)(F)F)nc3)cc1)C2

OUTPUT:
12000
2900
14000
